Listed here are molecules together with their documented Kd.
# experimental-protocol: SPR equilibrium binding of his-tagged PDZ domains to PtdIns(4,5)P2 liposomes
# protocol-conditions: SPR equilibrium analysis, 5% PtdIns(4,5)P2 in DOPC liposomes, 25°C, pH 7.2; read-out: KD app PtdIns(4,5)P2

molecule | Kd
DFNB31_1/R144E: DFNB31_1 PDZ domain mutant R144E (protein, left off: His6, N-terminal, state not stated) GEVRLVSLERAKAHEGLGFSIRGGSEHGVGIWVSLVEPGSLAEKEGLRVGDQILRVNDKSLARVTHAEAVKALKGSKKLVLSVYSAGRI | > 20 µM
DFNB31_1/K206E: DFNB31_1 PDZ domain mutant K206E (protein, left off: His6, N-terminal, state not stated) GEVRLVSLRRAKAHEGLGFSIRGGSEHGVGIWVSLVEPGSLAEKEGLRVGDQILRVNDKSLARVTHAEAVEALKGSKKLVLSVYSAGRI | 8.2 µM
DFNB31_1/K209E: DFNB31_1 PDZ domain mutant K209E (protein, left off: His6, N-terminal, state not stated) GEVRLVSLRRAKAHEGLGFSIRGGSEHGVGIWVSLVEPGSLAEKEGLRVGDQILRVNDKSLARVTHAEAVKALEGSKKLVLSVYSAGRI | > 20 µM

Hey, just so you know, these numbers are from paper PMC3563628.
